system: Pseudomonas aeruginosa; test: Antibacterial activity against Pseudomonas aeruginosa ATCC 27853 after 18 to 20 hrs by spectrophotometry based microdilution method; type: functional
The source made the active and inactive calls. The calls are words filed in the database; no cut-off is given here. Non-standard residues stand in square brackets, D forms with d. Residues, ends and D or L forms follow the SMILES beside them. *: point of attachment. Mycophenolyl = COc1c(C)c2c(c(O)c1C/C=C(\C)CCC(=O)*)C(=O)OC2; Arg(NO2) = N=C(NCCC[CH](N)C(=O)O)N[N+](=O)[O-]; βAla = NCCC(=O)O
value_type: MIC50

INSERT INTO results (molecule, result) VALUES
  ('CCC(C)[C@H](NC(=O)CC/C(C)=C/Cc1c(O)c2c(c(C)c1OC)COC2=O)C(=O)OC (stereo partly drawn)', 'inactive'),
  ('COC(=O)C(NC(=O)C(CCCCNC(=O)CCN)NC(=O)C1CCCN1C(=O)C(CCCNC(=N)N[N+](=O)[O-])NC(=O)CC/C(C)=C/Cc1c(O)c2c(c(C)c1OC)COC2=O)C(C)O (stereo not drawn) (Mycophenolyl-[Arg(NO2)]PK(βAla)T-OMe; configuration not given here)', 'inactive'),
  ('COC(=O)[C@@H](NC(=O)CC/C(C)=C/Cc1c(O)c2c(c(C)c1OC)COC2=O)C(C)O (stereo partly drawn)', 'inactive');

###

test system: Pseudomonas aeruginosa; assay: Antibacterial activity against Pseudomonas aeruginosa ATCC 27853 after 18 to 20 hrs by spectrophotometry based microdilution method; format: functional
Calls of active or inactive are those of the source. The calls are words filed in the database; no cut-off is given here. Non-standard residues stand in square brackets, D forms with d. Residues, ends and D or L forms follow the SMILES beside them. *: point of attachment. Mycophenolyl = COc1c(C)c2c(c(O)c1C/C=C(\C)CCC(=O)*)C(=O)OC2; Arg(NO2) = N=C(NCCC[CH](N)C(=O)O)N[N+](=O)[O-]
value_type: MIC50

Study these solved cases before continuing.
INSERT INTO results (molecule, value_type, result) VALUES
  ('COc1c(C)c2c(c(O)c1C/C=C(\C)CCC(=O)N[C@@H](CCCNC(=N)N[N+](=O)[O-])C(=O)O)C(=O)OC2', 'MIC50', 'inactive'),
  ('COC(=O)[C@H](CCCNC(=N)N[N+](=O)[O-])NC(=O)CC/C(C)=C/Cc1c(O)c2c(c(C)c1OC)COC2=O', 'MIC50', 'inactive'),
  ('COC(=O)C[C@H](NC(=O)CC/C(C)=C/Cc1c(O)c2c(c(C)c1OC)COC2=O)C(=O)OC', 'MIC50', 'inactive'),
  ('COC(=O)C(NC(=O)CC/C(C)=C/Cc1c(O)c2c(c(C)c1OC)COC2=O)C(=O)OC', 'MIC50', 'inactive');

// recorded MIC50 for COC(=O)C(NC(=O)C(CCCCNC(=O)CN)NC(=O)C1CCCN1C(=O)C(CCCNC(=N)N[N+](=O)[O-])NC(=O)CC/C(C)=C/Cc1c(O)c2c(c(C)c1OC)COC2=O)C(C)O (stereo unspecified) (Mycophenolyl-[Arg(NO2)]PK(Gly)T-OMe; configuration not given here) : inactive

// recorded MIC50 for NC[C@H]1O[C@H](O[C@H]2[C@H](O)[C@@H](O[C@H]3O[C@H](CO)[C@@H](O)[C@H](N)[C@H]3O)[C@H](N)C[C@@H]2N)[C@H](O)[C@@H](O)[C@@H]1O : 1500 µg/mL

###

test system: Staphylococcus aureus; assay: Antibacterial activity against methicillin-sensitive Staphylococcus aureus ATCC 25923 after 18 to 20 hrs by spectrophotometry based microdilution method; format: functional
Activity calls are given as the source filed them. The calls are words filed in the database; no cut-off is given here.
value_type: MIC50

INSERT INTO measurements (compound, result) VALUES
  ('COC(=O)C(NC(=O)CC/C(C)=C/Cc1c(O)c2c(c(C)c1OC)COC2=O)C(=O)OC', '256 µg/mL'),
  ('COc1c(C)c2c(c(O)c1C/C=C(\C)CCC(=O)N[C@@H](CCCNC(=N)N[N+](=O)[O-])C(=O)O)C(=O)OC2', 'inactive'),
  ('COC(=O)[C@H](NC(=O)CC/C(C)=C/Cc1c(O)c2c(c(C)c1OC)COC2=O)C(C)O (stereo partly drawn)', 'inactive');
